Origin of measurements: patent US12187723B2

target: human TLR7 (Homo sapiens); experiment: TLR7 inhibition reporter assay (HEK-Blue SEAP); conditions: HEK-Blue cells overexpressing human TLR7, gardiquimod 7.5 μM, 22 hour incubation
Sequence (Q9NYK1 27-1049): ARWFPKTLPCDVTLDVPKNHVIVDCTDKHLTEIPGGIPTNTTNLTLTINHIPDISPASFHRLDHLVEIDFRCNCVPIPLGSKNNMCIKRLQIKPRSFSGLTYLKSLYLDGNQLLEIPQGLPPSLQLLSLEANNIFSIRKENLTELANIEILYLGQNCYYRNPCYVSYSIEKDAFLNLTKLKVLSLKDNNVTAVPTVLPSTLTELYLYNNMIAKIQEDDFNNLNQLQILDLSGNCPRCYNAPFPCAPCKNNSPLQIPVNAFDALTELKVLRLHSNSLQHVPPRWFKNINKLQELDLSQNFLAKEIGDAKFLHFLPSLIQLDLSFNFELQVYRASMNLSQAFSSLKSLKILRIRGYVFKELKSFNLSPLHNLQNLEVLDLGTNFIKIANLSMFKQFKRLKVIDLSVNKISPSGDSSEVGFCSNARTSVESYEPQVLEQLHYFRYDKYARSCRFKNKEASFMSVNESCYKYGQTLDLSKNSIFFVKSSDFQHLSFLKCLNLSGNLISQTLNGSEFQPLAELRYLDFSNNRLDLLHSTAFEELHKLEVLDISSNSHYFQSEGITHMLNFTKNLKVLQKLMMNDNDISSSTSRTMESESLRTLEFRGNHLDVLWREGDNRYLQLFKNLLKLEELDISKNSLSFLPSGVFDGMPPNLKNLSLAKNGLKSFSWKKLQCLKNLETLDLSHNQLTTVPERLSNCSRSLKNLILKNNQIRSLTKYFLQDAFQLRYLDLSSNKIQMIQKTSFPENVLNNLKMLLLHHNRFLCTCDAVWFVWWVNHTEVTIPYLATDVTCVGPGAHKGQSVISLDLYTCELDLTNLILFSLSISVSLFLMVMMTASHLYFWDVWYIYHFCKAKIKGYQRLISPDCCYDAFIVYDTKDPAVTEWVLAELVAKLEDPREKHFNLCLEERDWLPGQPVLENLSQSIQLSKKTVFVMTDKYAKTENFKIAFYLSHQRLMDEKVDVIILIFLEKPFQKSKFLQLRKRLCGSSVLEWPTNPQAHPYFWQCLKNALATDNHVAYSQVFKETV
observable: IC50 (nM)

Cc1cc(-c2cc(C)c3ncnn3c2)cc2[nH]c(=O)n(C3CCN(C(C)C)CC3)c12: 32.9

P. COc1cc(-c2cc3[nH]c(=O)n([C@@H]4CCCN(C5COC5)C4)c3cc2C(F)(F)F)cn2ncnc12
Q. CCc1cc2c(cc1-c1cc(OC)c3ncnn3c1)[nH]c(=O)n2[C@@H]1CCCN(C2CCCOC2)C1 (stereo partly drawn) [Example 214]
Which has the smaller recorded IC50, P or Q ? Write the label of whichever entry you select.
Q
